Collected pIC50 values appear next to each entry.
TARGET_DESC: SoxS (Escherichia coli)
Sequence (P0A9E2 whole entry): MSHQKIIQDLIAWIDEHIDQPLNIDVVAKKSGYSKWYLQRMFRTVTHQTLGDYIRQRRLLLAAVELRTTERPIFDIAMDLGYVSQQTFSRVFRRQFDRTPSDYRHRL
pIC50: −log10 of the molar value.

Prompt line: Field request: pIC50 | item: CSc1ccc(/C=C/C(=O)Nc2ccc(-c3nc4ccc([N+](=O)[O-])cc4n3O)cc2)cn1
Response line: < 4.30

Alright, here's another molecule for you.
Prompt line: Fill in the blank: the reported pIC50 of CSc1ccc(/C=C/C(=O)Nc2ccc(-c3nc4ccc(C#N)cc4n3O)cc2)cc1 is ____.
Response line: 4.60 to 5.00

* * *

Reported IC50 values follow for various compounds
TARGET_DESC: ExsA (Pseudomonas aeruginosa)
Sequence (P26993 whole entry): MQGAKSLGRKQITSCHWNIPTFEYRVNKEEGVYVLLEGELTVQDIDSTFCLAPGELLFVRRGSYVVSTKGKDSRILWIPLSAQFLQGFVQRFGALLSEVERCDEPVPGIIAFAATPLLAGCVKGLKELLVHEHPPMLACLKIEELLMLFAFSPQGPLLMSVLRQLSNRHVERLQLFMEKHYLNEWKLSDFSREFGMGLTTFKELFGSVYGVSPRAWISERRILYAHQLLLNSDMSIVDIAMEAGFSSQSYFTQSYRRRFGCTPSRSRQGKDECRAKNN
ASSAY_PROTOCOL: Inhibition of ExsA-DNA binding, cell-free chemiluminescence assay

The following compounds have reported results that may help.
Prompt line: What value of IC50 has been recorded for this entry: CSc1ccc(/C=C/C(=O)Nc2ccc(-c3nc4ccc(C#N)cc4n3O)cc2)cc1 [Compound D]
Response line: < 10 µM

Prompt line: Param item: CN(C)c1ccc(/C=C/C(=O)Nc2ccc(-c3nc4ccc([N+](=O)[O-])cc4n3O)cc2)cn1 [Z]
Response line: > 50 µM

Prompt line: // repeat for CC(=O)c1ccc(/C=C/C(=O)Nc2ccc(-c3nc4c(CC(=O)O)cc([N+](=O)[O-])cc4n3O)cc2)cc1 [Compound J] and report
Response line: < 10 µM

Prompt line: Also, O=C(Nc1ccc(-c2nc3ccc([N+](=O)[O-])cc3n2O)cc1)c1ccc(-n2cccn2)nc1 [Compound I] please.
Response line: 25 to 50 µM

Prompt line: CC(=O)c1ccc(/C=C/C(=O)Nc2ccc(-c3nc4c(CC(=O)O)cc([N+](=O)[O-])cc4n3O)cc2)cn1 [Compound V] , same question.
Response line: < 10 µM

Prompt line: Another compound: N#Cc1ccc2nc(-c3ccc(NC(=O)/C=C/c4ccc(C(O)(O)C(F)(F)F)cc4)cc3)n(O)c2c1 [L]
Response line: 10 to 25 µM

Continue with the compound presented below.
Prompt line: Fill in the blank: the reported IC50 of Cc1nc(C(F)(F)F)ccc1C(=O)Nc1ccc(-c2nc3ccc([N+](=O)[O-])cc3n2O)cc1 [Compound W] is ____.
Response line: > 50 µM

* * *

Reported IC50 values for a set of compounds
TARGET_DESC: ExsA (Pseudomonas aeruginosa)
ASSAY_PROTOCOL: Inhibition of ExsA-DNA binding, cell-free chemiluminescence assay

Prompt line: I am curious: what IC50 value has been reported for N#Cc1ccc2nc(-c3ccc(NC(=O)c4ccc(C(O)(O)C(F)(F)F)cc4)cc3)n(O)c2c1 ?
Response line: 10 to 25 µM

Next:
Prompt line: Given the compound CSc1ccc(/C=C/C(=O)Nc2ccc(-c3nc4ccc([N+](=O)[O-])cc4n3O)cc2)cc1 , what is its reported IC50?
Response line: 10 to 25 µM

Prompt line: Next record, please: CN1CCN(c2ccc(C(=O)Nc3ccc(-c4nc5ccc([N+](=O)[O-])cc5n4O)cc3)cn2)CC1
Response line: > 50 µM

Prompt line: What would you report for CSc1ccc(/C=C/C(=O)Nc2ccc(-c3nc4ccc([N+](=O)[O-])cc4n3O)cc2)cn1 ?
Response line: < 10 µM

Prompt line: Ok, now O=C(O)Cc1cc([N+](=O)[O-])cc2c1nc(-c1ccc(NC(=O)c3ccc(N4CCOCC4)nc3)cc1)n2O
Response line: 25 to 50 µM

Prompt line: Same thing, different compound: N#Cc1ccc2nc(-c3ccc(NC(=O)c4ccc(N5CCOCC5)nc4)cc3)n(O)c2c1
Response line: < 10 µM

Prompt line: For CC(=O)c1ccc(/C=C/C(=O)Nc2ccc(-c3nc4ccc(Cl)cc4n3O)cc2)cc1 then?
Response line: 10 to 25 µM

Prompt line: Then this compound: O=C(/C=C/c1ccc(C(O)(O)C(F)(F)F)cc1)Nc1ccc(-c2nc3ccc([N+](=O)[O-])cc3n2O)cc1
Response line: > 50 µM

Prompt line: And then CC(=O)c1ccc(/C=C/C(=O)Nc2ccc(-c3nc4ccc(C#N)cc4n3O)cc2)cn1 , what is it?
Response line: > 50 µM

Prompt line: Next entry: O=C(Nc1ccc(-c2nc3ccc([N+](=O)[O-])cc3n2O)cc1)c1ccc(C(O)(O)C(F)(F)F)cc1
Response line: > 50 µM
